Ki for Adenosine receptor A2a (Homo sapiens, UniProt P29274), merged from several publications.

| MOLECULE | TEST_TARGET | QUALIFIER_SIGN | Ki [µM] |
| --- | --- | --- | --- |
| N#Cc1cccc(-c2nc(N)c3nc(-c4ccccc4)sc3n2)c1 | Adenosine receptor A2a (Homo sapiens, UniProt P29274) | = | 0.0336 |
| OC[C@@]12C[C@@H]1[C@@H](n1cnc3c(NCc4cccc(I)c4)nc(Cl)nc31)[C@H](O)[C@@H]2O | Adenosine receptor A2a (Homo sapiens, UniProt P29274) | = | 1.6 |
| O=C(COc1ccc(Cl)cc1)Nc1nc2nn(CCc3ccccc3)cc2c2nc(-c3ccco3)nn12 | Adenosine receptor A2a (Homo sapiens, UniProt P29274) | = | 0.0317 |
| CC(C)(C)c1cc(C(=O)NCCc2ccc(Nc3ncnc4c3ncn4[C@@H]3O[C@H](CO)[C@@H](O)[C@H]3O)cc2)cc(C(C)(C)C)c1O | Adenosine receptor A2a (Homo sapiens, UniProt P29274) | > | 10 |
| CCCn1c(=O)c2[nH]c(-c3ccc(OCC(=O)Nc4ccccc4O)cc3)cc2n(CCC)c1=O | Adenosine receptor A2a (Homo sapiens, UniProt P29274) | = | 0.0324 |
| CCn1c(=O)c2[nH]c(-c3ccc[nH]3)nc2n(CCCOC)c1=O | Adenosine receptor A2a (Homo sapiens, UniProt P29274) | = | 0.209 |
| CCCn1c(=O)c2[nH]c(-c3cnn(CC(=O)N4CCN(c5cccc(C(F)(F)F)c5)CC4)c3)nc2n(CCC)c1=O | Adenosine receptor A2a (Homo sapiens, UniProt P29274) | = | 0.057 |
| CC(C)Cn1c(=O)c2[nH]c(-c3cnn(Cc4cccc(F)c4)c3)nc2n(CC(C)C)c1=O | Adenosine receptor A2a (Homo sapiens, UniProt P29274) | = | 1.3 |
| CCOC(=O)c1nc(NC(=O)c2ccc(F)cc2)nc2nn(CCc3ccccc3)cc12 | Adenosine receptor A2a (Homo sapiens, UniProt P29274) | = | 6.1 |
| COc1ccc(CC(=O)Nc2cc(-n3nc(C)cc3C)nc(-c3ccc(C)o3)n2)cc1F | Adenosine receptor A2a (Homo sapiens, UniProt P29274) | = | 0.003 |
| Nc1nc2c(cnn2CCc2ccc(C(=O)NO)cc2)c2nc(-c3ccco3)nn12 | Adenosine receptor A2a (Homo sapiens, UniProt P29274) | = | 0.0043 |
| Nc1nc(-c2ccc(NC(=O)CCC(=O)O)cc2)cn2c(=O)n(-c3ccccc3)nc12 | Adenosine receptor A2a (Homo sapiens, UniProt P29274) | = | 0.573 |
| COc1ccccc1CNc1nc(N)c2nc(-c3ccccc3)sc2n1 | Adenosine receptor A2a (Homo sapiens, UniProt P29274) | = | 0.00472 |
| Nc1nc(C(=O)NCc2cccc3cccnc23)c2cc(Cl)cc(Cl)c2n1 | Adenosine receptor A2a (Homo sapiens, UniProt P29274) | = | 0.0066 |
| CCCCn1c(Br)nc2c(N)ncnc21 | Adenosine receptor A2a (Homo sapiens, UniProt P29274) | = | 0.73 |
| CCN(C(C)=O)c1ccc(OC)c2nc(NC(=O)c3ccnn3C)sc12 | Adenosine receptor A2a (Homo sapiens, UniProt P29274) | = | 0.051 |
| CCC(C)Oc1ccc(CCCn2ncc3c2nc(N)n2nc(-c4ccco4)nc32)cc1 (centres undefined) | Adenosine receptor A2a (Homo sapiens, UniProt P29274) | = | 0.0221 |
| COc1ccccc1CNc1nc(N)c2nc(-c3cccs3)sc2n1 | Adenosine receptor A2a (Homo sapiens, UniProt P29274) | = | 0.00224 |
| O=C(Nc1ccc(Br)c(-c2ccco2)n1)C1CC1 | Adenosine receptor A2a (Homo sapiens, UniProt P29274) | = | 0.035 |
| C#CCOc1ccc(-c2cn3c(=O)n(-c4ccccc4)nc3c(N)n2)cc1 | Adenosine receptor A2a (Homo sapiens, UniProt P29274) | = | 0.0106 |
| Cn1c(=O)c2c(cc(-c3nc4ccc(Cl)cc4o3)n2C)n(C)c1=O | Adenosine receptor A2a (Homo sapiens, UniProt P29274) | > | 1 |
| CCCn1c(=O)c2[nH]c(-c3cn[nH]c3)nc2n(CCC)c1=O | Adenosine receptor A2a (Homo sapiens, UniProt P29274) | = | 0.23 |
| O=C(Nc1nc(NCc2ccccc2)nc2nc(-c3ccco3)nn12)c1ccccc1 | Adenosine receptor A2a (Homo sapiens, UniProt P29274) | = | 0.0952 |
| COc1ccccc1-n1nc2c(=O)[nH]c(-c3ccccc3)cn2c1=O | Adenosine receptor A2a (Homo sapiens, UniProt P29274) | > | 30 |
| Nc1nc(C(=O)NCc2cccc3[nH]cnc23)c2cccc(F)c2n1 | Adenosine receptor A2a (Homo sapiens, UniProt P29274) | = | 0.025 |
| c1ccc(CCNc2nc3ccccc3n3nc(-c4ccco4)nc23)cc1 | Adenosine receptor A2a (Homo sapiens, UniProt P29274) | = | 0.0513 |
| NC1=C(Nc2cccc(C(F)(F)F)c2)C(=O)c2ccccc2C1=O | Adenosine receptor A2a (Homo sapiens, UniProt P29274) | = | 0.56 |
| Cn1c(=O)c2c(nc(/C=C/c3ccc(Cl)cc3)n2C)n(C)c1=O | Adenosine receptor A2a (Homo sapiens, UniProt P29274) | = | 0.141 |
| Cc1ccc(CN2CCC(NC(=O)Nc3nc4nn(C)cc4c4nc(-c5ccco5)nn34)CC2)cc1 | Adenosine receptor A2a (Homo sapiens, UniProt P29274) | > | 5 |
| CCCn1c(=O)c2[nH]c(-c3ccc(C)cc3)cc2n(CCC)c1=O | Adenosine receptor A2a (Homo sapiens, UniProt P29274) | = | 0.631 |
| O=C(Nc1nc(-c2ccccc2)nc2sc(-c3ccco3)nc12)c1ccco1 | Adenosine receptor A2a (Homo sapiens, UniProt P29274) | = | 0.428 |
| Cn1cnc2c(NC3CCCCC3)nc(Nc3ccccc3)nc21 | Adenosine receptor A2a (Homo sapiens, UniProt P29274) | = | 1.2 |
| O=c1c(-c2ccccc2)nnc2n(-c3ccccc3)c3ccc(Cl)cc3n12 | Adenosine receptor A2a (Homo sapiens, UniProt P29274) | > | 10 |
| O=c1c(-c2ccccc2)nnc2n(CCc3ccccc3)c3ccccc3n12 | Adenosine receptor A2a (Homo sapiens, UniProt P29274) | > | 10 |
